Where do the numbers come from? From paper PMC4076014.

As an illustration, consider measured pIC50 for compounds on INPP5A (Homo sapiens, UniProt Q14642).
Give bare numbers, as −log10 of the molar value.

Some compounds with known pIC50 results, for comparison:
{"STRUCTURE_SMILES_STRING": "CC(C)Oc1c(Cl)cc(CN)cc1Cl", "pIC50": 5.84}
{"STRUCTURE_SMILES_STRING": "COc1cc(CN)c(Br)cc1OCc1ccccc1Cl", "pIC50": 5.74}

Please fill in: pIC50 reported for CCOc1cc(CN)cc(Br)c1OCC = 5.97

###

# TARGET: INPP5B catalytic domain (Homo sapiens, UniProt P32019)
Please go through the items and note down their pIC50.
Answers are plain numbers, as −log10 of the molar value.

Some molecules with known pIC50 results, for comparison:
{"STRUCTURE_SMILES_STRING": "CC(C)Oc1c(Cl)cc(CN)cc1Cl", "RECORDED_RESULT": 6.09}
{"STRUCTURE_SMILES_STRING": "COc1cc(-c2nnc3sc(-c4cccs4)nn23)cc(OC)c1OC", "RECORDED_RESULT": 6.04}
{"STRUCTURE_SMILES_STRING": "c1cc(-c2nnc3scnn23)ccn1", "RECORDED_RESULT": 6.28}
{"STRUCTURE_SMILES_STRING": "CCOc1cc(CN)cc(Br)c1OCC", "RECORDED_RESULT": 6.24}

Here's the next entry for you.
Please fill in: pIC50 reported for COc1cc(CN)c(Br)cc1OCc1ccccc1Cl = 5.96

###

# TARGET: INPP5E (Homo sapiens)
# Sequence (Q9NRR6 294-598 limits assumed): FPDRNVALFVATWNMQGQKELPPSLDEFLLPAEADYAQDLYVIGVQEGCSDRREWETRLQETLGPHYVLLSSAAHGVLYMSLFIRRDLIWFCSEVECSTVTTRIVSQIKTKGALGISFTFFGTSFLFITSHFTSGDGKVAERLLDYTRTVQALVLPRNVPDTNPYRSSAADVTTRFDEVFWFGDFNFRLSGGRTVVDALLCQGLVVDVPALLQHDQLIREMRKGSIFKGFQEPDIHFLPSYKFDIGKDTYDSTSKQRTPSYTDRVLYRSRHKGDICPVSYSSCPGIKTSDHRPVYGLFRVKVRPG
# ASSAY_METHOD_TEXT: Fluorescence polarization
# Type: biochemical
Please go through the items and note down their pIC50.
Answers are plain numbers, as −log10 of the molar value.

Some molecules with known pIC50 results, for comparison:
{"STRUCTURE_SMILES_STRING": "COc1cc(CN)c(Br)cc1OCc1ccccc1Cl", "TARGET": "INPP5E (Homo sapiens)", "READOUT_LABEL": "pIC50", "RECORDED_RESULT": 5.24}
{"STRUCTURE_SMILES_STRING": "CC(C)Oc1c(Cl)cc(CN)cc1Cl", "TARGET": "INPP5E (Homo sapiens)", "READOUT_LABEL": "pIC50", "RECORDED_RESULT": 5.55}

Here's the next entry for you.
pIC50 on INPP5E (Homo sapiens) for CCOc1cc(CN)cc(Br)c1OCC is 5.63

###

# TARGET: INPP5B (Homo sapiens, UniProt P32019)
# ASSAY_METHOD_TEXT: biochemical
READOUT_LABEL: IC50 (µM)
One number for each entry, in µM.

Please fill in: IC50 reported for c1cc(-c2nnc3scnn23)ccn1 = 17.5

###

# TARGET: UniProt:P32019
# ASSAY_METHOD_TEXT: biochemical
READOUT_LABEL: pIC50
Answers are plain numbers, as −log10 of the molar value.

Please fill in: pIC50 reported for COc1cc(-c2nnc3sc(-c4cccs4)nn23)cc(OC)c1OC [YU142717] = 5.58

###

# TARGET: SHIP1 (Mus musculus, UniProt Q9ES52)
Please go through the items and note down their pIC50.
Give bare numbers, as −log10 of the molar value.

Some molecules with known pIC50 results, for comparison:
{"STRUCTURE_SMILES_STRING": "CCOc1cc(CN)cc(Br)c1OCC", "pIC50": 5.60}
{"STRUCTURE_SMILES_STRING": "COc1cc(CN)c(Br)cc1OCc1ccccc1Cl", "pIC50": 5.05}

Here's the next entry for you.
pIC50 on SHIP1 (Mus musculus, UniProt Q9ES52) for CC(C)Oc1c(Cl)cc(CN)cc1Cl is 5.54
